target: wild-type EGFR expressed on cells (human), P00533; test: flow cytometry, A431 cells; settings: remark: other sources report otherwise
experimental-readout: MFI

- binder: "32A10 (antibody, V domains shown) VH: QVTLKESGPVLVKPTETLTLTCTVSGFSLSNARMGVSWIRQPPGKALEWLAHIFSTDEKSIRRSLRSRLTLSKDTSKSQVVLTMTNMDPVDTATYFCARDSSNYEGYFDYWGQGTLVTVSS VL: EVVMTQSPATLSVSPGERVTLSCRASQSVSSNFAWYQQRPGQAPRLLLYGATTRATGLPGRFSGSGSGTENILTISSLQSEDFAIYFCQQYKDWPFTFGPGSKVDIK"
  experimental-readout: "MFI"
  measured: 531

Now take the following binder into account.
Note to self: MFI recorded for 34E7 (antibody, V domains shown) VH: EVNLVESGGGLVKPGGSLRLSCEASGFTFSYAWMSWVRQAPGKGLEWVGRIKSINDGGATDYASPVRNRFTISRDDSRNMLYLEMHSLKTEDTAVYYCTTIPGNDAFDMWGQGTLVTVSS VL: DIVLTQSPLSLSVTPGEPASISCRSTQSLLYSNGKNYLDWFLHKPGQSPQLLIFLGSIRASGVPDRFSGSGSGIDFILKISRVEAEDVGVYYCMQAQQTPITFGQGTRLEIK was 294
